FYI, the data here is from the supplement of paper PMC9233669.

system: biotinyl-Met-oxazolone; assay: self-aminoacylation, catalytic enhancement (BMO) (fold over background); higher = more active; k-Seq, kA / k0A0; sequences stand for … in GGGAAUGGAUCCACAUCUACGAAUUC…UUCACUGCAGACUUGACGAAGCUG
This sample holds only a part of the variants without activity.

ORDERED RESIDUES: AUUACCCUGAACAUCGAGUGA [Fam2.1 aminoacylation ribozyme variant]
self-aminoacylation: 6.65

ORDERED RESIDUES: CCACUCUUCAGGCAAUCGGUC [Fam1B.1 aminoacylation ribozyme variant]
self-aminoacylation: 1.34

ORDERED RESIDUES: CUAUUUCAAACAGUCGGUCUG [Fam1A.1 aminoacylation ribozyme variant]
self-aminoacylation: 0.859

ORDERED RESIDUES: GCACACUUCAAGCGAUCGGUC [Fam1B.1 aminoacylation ribozyme variant]
self-aminoacylation: 1.33

ORDERED RESIDUES: UUUACCCUGGUCAGCGAGUGA [Fam2.1 aminoacylation ribozyme variant]
self-aminoacylation: 5.62

ORDERED RESIDUES: AUUACCCCGGUCAUGGAGUGA [Fam2.1 aminoacylation ribozyme variant]
self-aminoacylation: 4.97

ORDERED RESIDUES: AAGUUUGCUGAUAGUCUCAAG [Fam3.1 aminoacylation ribozyme variant]
self-aminoacylation: 1.01

ORDERED RESIDUES: AAGUUUGUUAAUAAUCGCAAG [Fam3.1 aminoacylation ribozyme variant]
self-aminoacylation: 0.824

ORDERED RESIDUES: AUUCACAUAGGUCAACGGGUG [Fam2.2 aminoacylation ribozyme variant]
self-aminoacylation: 4.31

ORDERED RESIDUES: AUGUGUGCUAAUAGUCGCAAG [Fam3.1 aminoacylation ribozyme variant]
self-aminoacylation: 1.2

ORDERED RESIDUES: AUUCACCUUGGACAUCGGGUG [Fam2.2 aminoacylation ribozyme variant]
self-aminoacylation: 3.51

ORDERED RESIDUES: AUCCACCUAGGACAUCGGGUG [Fam2.2 aminoacylation ribozyme variant]
self-aminoacylation: 3.23

ORDERED RESIDUES: AAUACCCCGGUCAUCGAGUGA [Fam2.1 aminoacylation ribozyme variant]
self-aminoacylation: 4.63

ORDERED RESIDUES: CCACACCUCAAGCAAUCGAUC [Fam1B.1 aminoacylation ribozyme variant]
self-aminoacylation: 0.442

ORDERED RESIDUES: GUACUUCAACCAAUCGGUCUG [Fam1A.1 aminoacylation ribozyme variant]
self-aminoacylation: 1.39

ORDERED RESIDUES: UUUAGCCUGGUCAUCGAGUGA [Fam2.1 aminoacylation ribozyme variant]
self-aminoacylation: 5.59

ORDERED RESIDUES: AUUUCCCUGGUCAUUGAGUGA [Fam2.1 aminoacylation ribozyme variant]
self-aminoacylation: 8.36

ORDERED RESIDUES: CUACUACAAACAAUCUGUCUG [Fam1A.1 aminoacylation ribozyme variant]
self-aminoacylation: 0.624
